- Tested on: SN12C renal
- TEST DETAILS: NCI-60 one-dose screen, 48 h (100 = growth as untreated, 0 = no growth, -100 = all killed)
- SETTINGS: 10 µM unless noted
This is part of a sample that, as a whole, favours compounds with a hit. Of some 83,000 tested, about 20% had one in any assay.
Labels assigned by growth range: group 1: < 30%; group 2: ≥ 30% and < 90%; group 3: ≥ 90%

[
  {
    "MOLECULE": "COc1ccc2nc(N/N=C(\\C)c3ccccn3)cc(C)c2c1",
    "LABEL CLASS": "group 1"
  },
  {
    "MOLECULE": "CCOc1cc(/C=C/C(=O)CC(=O)/C=C/c2ccc(OC(=O)CNCCN(CC)CC)c(OCC)c2)ccc1OC(=O)CNCCN(CC)CC",
    "LABEL CLASS": "group 1"
  },
  {
    "MOLECULE": "Clc1ccc2c(c1)C(Br)c1cc(Cl)cc(Cl)c1-2 (stereo not given)",
    "LABEL CLASS": "group 1"
  },
  {
    "MOLECULE": "CCSc1ncc(Br)c(Sc2nc(N)nc3nc[nH]c23)n1",
    "LABEL CLASS": "group 2"
  },
  {
    "MOLECULE": "Cc1ccc(-c2csc(N)n2)cc1",
    "LABEL CLASS": "group 3"
  },
  {
    "MOLECULE": "CCCCCCCSc1ncnc2[nH]ncc12",
    "LABEL CLASS": "group 2"
  },
  {
    "MOLECULE": "COc1ccc(-c2cc(-c3nnc(SCC(=O)Nc4ccc(C(C)=O)cc4)n3-c3ccccc3)c3ccccc3n2)cc1OC",
    "LABEL CLASS": "group 3"
  },
  {
    "MOLECULE": "CC(=O)c1ccc(NS(=O)(=O)c2ccc([N+](=O)[O-])cc2)cc1",
    "LABEL CLASS": "group 3"
  },
  {
    "MOLECULE": "CCN(CC)c1ccc(/C=C/C(=O)c2cccc(NS(C)(=O)=O)c2)cc1",
    "LABEL CLASS": "group 2"
  },
  {
    "MOLECULE": "CCOC(=O)N1CCC(N=C2CSc3nnc(-c4cc(C(F)(F)F)cc(C(F)(F)F)c4)n3N2)CC1",
    "LABEL CLASS": "group 1"
  }
]

====

- Test system: TK-10 renal
- TEST DETAILS: NCI-60 one-dose screen, 48 h
- SETTINGS: 10 µM unless noted
About 83,000 compounds went through this panel and 20% of them were active in at least one assay; those are over-represented in the sample as a whole. The source made the active and inactive calls. The calls were made as follows: active = growth percent below 10; inactive = the rest.
Outcome codes: T for active, F for inactive

[
  {
    "COMPOUND": "C(=C1c2ccccc2-c2ccccc21)c1ccccn1",
    "LABEL CLASS": "F"
  },
  {
    "COMPOUND": "CCOC(=O)c1cnc2c(C)cc(C)cc2c1NCCCN(C)C",
    "LABEL CLASS": "F"
  },
  {
    "COMPOUND": "O=C(O)CCNS(=O)(=O)c1ccc(-c2ccccc2)cc1",
    "LABEL CLASS": "F"
  },
  {
    "COMPOUND": "C=CCN(/C=C/CN(CC=C)CC=C)CC=C",
    "LABEL CLASS": "F"
  },
  {
    "COMPOUND": "O=C(N/N=C/c1cccc([N+](=O)[O-])c1)c1ccc(Br)o1",
    "LABEL CLASS": "F"
  },
  {
    "COMPOUND": "Clc1ccc2[nH]cc(-c3cncn3CCc3ccccc3)c2c1",
    "LABEL CLASS": "F"
  },
  {
    "COMPOUND": "COc1ccc(C(=O)/C=C/c2cccc(Nc3ccnc4cc(Cl)ccc34)c2)cc1",
    "LABEL CLASS": "T"
  },
  {
    "COMPOUND": "O=c1sc2ncnc3ncn1c32",
    "LABEL CLASS": "F"
  },
  {
    "COMPOUND": "CC1Cc2ccccc2N1C(=O)c1ccc(C(=O)c2ccccc2)cc1 (stereo not given)",
    "LABEL CLASS": "F"
  },
  {
    "COMPOUND": "Cc1csc(C#Cc2cncc(O)c2)n1",
    "LABEL CLASS": "F"
  },
  {
    "COMPOUND": "O=C1/C(=C/c2cccc(Cl)c2)CCc2ccccc21",
    "LABEL CLASS": "F"
  },
  {
    "COMPOUND": "O=C1NC(=O)/C(=C/c2ccc(Cl)cc2Cl)N1",
    "LABEL CLASS": "F"
  },
  {
    "COMPOUND": "Clc1ccc(C2c3ccccc3-c3nccn32)c(Cl)c1 (stereo not given)",
    "LABEL CLASS": "F"
  },
  {
    "COMPOUND": "CC(=O)Nc1cc2c3c(cccc3c1)-c1ccccc1-2",
    "LABEL CLASS": "F"
  },
  {
    "COMPOUND": "CCOC1Oc2ccccc2C(=O)/C1=N/c1nccs1 (stereo not given)",
    "LABEL CLASS": "F"
  },
  {
    "COMPOUND": "O=C(O)C1CCN(S(=O)(=O)c2ccc(-c3ccccc3)cc2)CC1",
    "LABEL CLASS": "F"
  },
  {
    "COMPOUND": "CC(=O)OC1Oc2cc(C)c(C)cc2-c2oc(=O)c(-c3ccccc3)cc21 (stereo not given)",
    "LABEL CLASS": "F"
  },
  {
    "COMPOUND": "O=C(/C=C/c1c(-c2ccccc2)[nH]c2ccccc12)S(=O)(=O)c1ccccc1",
    "LABEL CLASS": "F"
  },
  {
    "COMPOUND": "CC1CC=CCC1C1OCC(C)(C)CO1 (stereo not given)",
    "LABEL CLASS": "F"
  },
  {
    "COMPOUND": "CCOC(=O)Nc1ccc2c3c(cccc13)-c1ccccc1-2",
    "LABEL CLASS": "F"
  },
  {
    "COMPOUND": "Cc1[nH]cnc1/C=C1\\SC(N2CCCCC2)=NC1=O",
    "LABEL CLASS": "F"
  },
  {
    "COMPOUND": "CC(C)=CCCC(C)c1ccc(C)c2c1OCN(CC1CCNCC1)C2 (stereo not given)",
    "LABEL CLASS": "F"
  },
  {
    "COMPOUND": "N#Cc1c(-c2ccccc2)cc(-c2ccccc2)n(CCC(=O)O)c1=O",
    "LABEL CLASS": "F"
  },
  {
    "COMPOUND": "CCOC(=O)c1sc(NC(=O)COc2cccc(/C=C3\\Cc4ccc(Cl)cc4C3=O)c2)nc1C",
    "LABEL CLASS": "F"
  },
  {
    "COMPOUND": "C[C@H]1C(=O)N2c3ccccc3[C@@]3(O)C[C@@H](n4cnc5ccccc5c4=O)C(=O)N1[C@@H]23",
    "LABEL CLASS": "F"
  },
  {
    "COMPOUND": "COc1ccc(Oc2ccccc2NC(=O)CNC(=O)c2cccc3ccccc23)cc1",
    "LABEL CLASS": "F"
  },
  {
    "COMPOUND": "CCOc1cc(/C=C/C(=O)C(C(=O)/C=C/c2ccc(OC(=O)CNc3nc4ccccc4[nH]3)c(OCC)c2)C(=O)CNc2nc3ccccc3[nH]2)ccc1OC(=O)CNc1nc2ccccc2[nH]1",
    "LABEL CLASS": "F"
  },
  {
    "COMPOUND": "CC(=O)Nc1cc(C(c2ccccc2)c2ccccc2)cc(C(c2ccccc2)c2ccccc2)c1C",
    "LABEL CLASS": "F"
  },
  {
    "COMPOUND": "CCN(CC)c1ccc(/C=C/C(=O)c2cccc(NS(C)(=O)=O)c2)cc1",
    "LABEL CLASS": "F"
  },
  {
    "COMPOUND": "Oc1ccccc1/C=N/N1CCCCCC1",
    "LABEL CLASS": "F"
  },
  {
    "COMPOUND": "Cc1ccc2nc3c(n2c1)C(=O)C(=O)c1ccccc1-3",
    "LABEL CLASS": "T"
  },
  {
    "COMPOUND": "OCCN1CCN(CCCN2c3ccccc3Sc3ccc(C(F)(F)F)cc32)CC1",
    "LABEL CLASS": "T"
  },
  {
    "COMPOUND": "COc1ccc(/C=C/C(=O)c2cccc(NS(C)(=O)=O)c2)cc1",
    "LABEL CLASS": "F"
  },
  {
    "COMPOUND": "O=Cc1ccccc1C(=O)O",
    "LABEL CLASS": "F"
  },
  {
    "COMPOUND": "O=[N+]([O-])c1ccc(NS(=O)(=O)c2ccc(Cl)c(Cl)c2)cc1",
    "LABEL CLASS": "F"
  }
]
